Target: human orexin-2 receptor (Homo sapiens (Human), UniProt O43614)
Sequence (O43614 whole entry): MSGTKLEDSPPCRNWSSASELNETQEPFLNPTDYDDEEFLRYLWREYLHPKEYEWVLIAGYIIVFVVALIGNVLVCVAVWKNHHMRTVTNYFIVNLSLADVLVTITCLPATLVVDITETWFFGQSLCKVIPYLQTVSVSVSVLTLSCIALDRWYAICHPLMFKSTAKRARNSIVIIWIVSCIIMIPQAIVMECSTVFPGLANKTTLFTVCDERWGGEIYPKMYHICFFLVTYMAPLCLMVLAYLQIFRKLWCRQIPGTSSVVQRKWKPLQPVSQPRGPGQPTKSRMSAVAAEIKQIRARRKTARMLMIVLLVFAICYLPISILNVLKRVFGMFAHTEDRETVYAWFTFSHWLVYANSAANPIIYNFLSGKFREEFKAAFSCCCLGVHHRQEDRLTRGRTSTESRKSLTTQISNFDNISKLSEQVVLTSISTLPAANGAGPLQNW
Test: Intracellular calcium measurement (FLIPR), CHO cells expressing human orexin-2 receptor, 3 nM orexin-A
Assay type: cell-based
Details: CHO cells expressing human orexin-2 receptor, FLIPR, 3 nM orexin-A; geometric mean if determined several times; read-out: IC50 OX2
property: pIC50
In simple prose, pIC50 is minus the logarithm base ten of a concentration in moles per litre.

Query (molecule): CCOc1ncccc1-c1nc([C@@H]2CCCN2C(=O)c2cc(Cl)c(C)cc2-n2nccn2)no1 [compound 380] ; field requested: pIC50 9.00

Query (molecule): COc1cccc(-c2nccnc2C(=O)N2CCC[C@H]2c2nc(-c3cccc(Cl)c3C)no2)c1 [compound 128] ; field requested: pIC50 6.74

Query (molecule): Cc1ccc(-n2nccn2)c(C(=O)N2CCC[C@H]2c2nc(-c3ccccc3)co2)c1 [Example 459] ; field requested: pIC50 6.53

Query (molecule): COc1ccc(-n2nccn2)c(C(=O)N2CCC[C@H]2c2nc(-c3ccccc3OC)no2)c1 [compound 232] ; field requested: pIC50 7.11

Query (molecule): Cc1cc(-n2nccn2)c(C(=O)N2CCC[C@@]2(C)c2nnc(-c3cccc(Cl)c3C)[nH]2)cc1Cl [compound 552] ; field requested: pIC50 8.15

Query (molecule): O=C(c1ccccc1-n1nccn1)N1CCC[C@H]1c1nc(-c2ccccc2OC(F)(F)F)no1 [compound 141] ; field requested: pIC50 7.54

Query (molecule): Cc1nc(C(=O)N2CCC[C@H]2c2nc(-c3cccc(Cl)c3C)no2)c(-c2ccccc2F)s1 [compound 124] ; field requested: pIC50 7.11

----------
Target: orexin-1 (Homo sapiens (Human))
Assay: Intracellular calcium measurement (FLIPR), CHO cells expressing human orexin-1 receptor, 3 nM orexin-A
Assay type: cell-based
Settings: CHO cells expressing human orexin-1 receptor, FLIPR, 3 nM orexin-A; geometric mean if determined several times; read-out: IC50 OX1
property: pIC50
In simple prose, pIC50 is minus the logarithm base ten of a concentration in moles per litre.

Given the entry Cc1ccc(-n2nccn2)c(C(=O)N2CCC[C@H]2c2nc(-c3ccccc3)co2)c1 [Example 459] , what pIC50 was observed with orexin-1 (Homo sapiens (Human))? 6.89

Given the entry COc1ccc(-n2nccn2)c(C(=O)N2CCC[C@H]2c2nc(-c3cccc(F)c3OC)no2)c1 [compound 199] , what pIC50 was observed with orexin-1 (Homo sapiens (Human))? 7.08

Given the entry COc1ccccc1-c1nnc([C@@H]2CCCN2C(=O)c2cc(Cl)c(C)cc2-n2nccn2)[nH]1 [compound 469] , what pIC50 was observed with orexin-1 (Homo sapiens (Human))? 7.60

Given the entry Cc1ccc(-n2nccn2)c(C(=O)N2CCC[C@@]2(C)c2nc(-c3ccccc3)no2)c1 [Example 540] , what pIC50 was observed with orexin-1 (Homo sapiens (Human))? 6.68

Given the entry COc1cc(C(=O)N2CCC[C@H]2c2nc(-c3ccccc3OC(F)(F)F)no2)c(-n2nccn2)cc1Cl [compound 281] , what pIC50 was observed with orexin-1 (Homo sapiens (Human))? 7.38

Given the entry Cc1ccc(-n2nccn2)c(C(=O)N2CCC[C@H]2c2ncn(-c3ccccc3)n2)c1 [Example 535] , what pIC50 was observed with orexin-1 (Homo sapiens (Human))? 7.33

Given the entry O=C(c1ncsc1-c1ccccc1)N1CCC[C@H]1c1nnc(-c2ccccc2OC(F)(F)F)[nH]1 [compound 483] , what pIC50 was observed with orexin-1 (Homo sapiens (Human))? 5.79

Given the entry CCOc1ncccc1-c1noc([C@@H]2CCCN2C(=O)c2cc(C)cc(C)c2-n2nccn2)n1 [compound 209] , what pIC50 was observed with orexin-1 (Homo sapiens (Human))? 7.25

----------
Biological target: orexin-1 (Homo sapiens (Human), UniProt O43613)
Sequence (O43613 whole entry): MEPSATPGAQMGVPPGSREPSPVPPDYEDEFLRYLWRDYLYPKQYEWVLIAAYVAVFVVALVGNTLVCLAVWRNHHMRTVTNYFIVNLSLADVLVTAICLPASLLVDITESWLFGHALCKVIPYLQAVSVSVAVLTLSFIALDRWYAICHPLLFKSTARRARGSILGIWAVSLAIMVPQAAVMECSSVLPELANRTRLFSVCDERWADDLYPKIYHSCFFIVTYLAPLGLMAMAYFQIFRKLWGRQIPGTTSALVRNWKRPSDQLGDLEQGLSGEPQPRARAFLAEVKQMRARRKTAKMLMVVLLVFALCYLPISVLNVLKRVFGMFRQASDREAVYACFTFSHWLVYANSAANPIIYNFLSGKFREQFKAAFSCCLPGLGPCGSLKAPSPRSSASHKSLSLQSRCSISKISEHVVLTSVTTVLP
Assay: Intracellular calcium measurement (FLIPR), CHO cells expressing human orexin-1 receptor, 3 nM orexin-A
Type: cell-based
Conditions: CHO cells expressing human orexin-1 receptor, FLIPR, 3 nM orexin-A; geometric mean if determined several times; read-out: IC50 OX1
Can you tell me IC50 for the items I'm about to list?
Output spec: scalar in nM, unitless text.

Query (compound): Cc1nc(C(=O)N2CCC[C@H]2c2nc(-c3cccc(Cl)c3C)no2)c(-c2ccc(F)cc2)s1 ; field requested: IC50 353

Query (compound): Cc1ccc(-n2nccn2)c(C(=O)N2CCC[C@H]2c2nc(-c3ccccc3CCO)no2)c1 ; field requested: IC50 439

Query (compound): Cc1ccc(C(=O)N2CCC[C@H]2c2nc(-c3cccc(Cl)c3C)no2)c(-n2nccn2)c1 ; field requested: IC50 109

Query (compound): CCc1ccccc1-c1nc([C@@H]2CCCN2C(=O)c2cc(OC)c(C)cc2-n2nccn2)no1 ; field requested: IC50 23

----------
Biological target: human orexin-2 receptor (Homo sapiens (Human), UniProt O43614)
Assay: Intracellular calcium measurement (FLIPR), CHO cells expressing human orexin-2 receptor, 3 nM orexin-A
Format: cell-based
Conditions: CHO cells expressing human orexin-2 receptor, FLIPR, 3 nM orexin-A; geometric mean if determined several times; read-out: IC50 OX2
Can you tell me IC50 for the items I'm about to list?
Output spec: scalar in nM, unitless text.

Query (compound): COc1cc(C(=O)N2CCC[C@H]2c2nc(-c3ccccc3OC(F)(F)F)no2)c(-n2nccn2)cc1F [compound 174] ; field requested: IC50 70

Query (compound): Cc1ccc(-n2nccn2)c(C(=O)N2CCC[C@@]2(C)c2nnc(-c3cccc(Cl)c3C)[nH]2)c1 [compound 550] ; field requested: IC50 178

Query (compound): Cc1ccc(-c2ccccc2)c(C(=O)N2CCC[C@@]2(C)c2nnc(-c3cccc(Cl)c3C)[nH]2)c1 [compound 556] ; field requested: IC50 857

Query (compound): CCc1ccccc1-c1noc([C@@H]2CCCN2C(=O)c2cc(C)ccc2-n2nccn2)n1 [compound 25] ; field requested: IC50 11

----------
Can you tell me IC50 for the items I'm about to list?
Biological target: UniProtKB O43614
Assay: Intracellular calcium measurement (FLIPR), CHO cells expressing human orexin-2 receptor, 3 nM orexin-A
Format: cell-based
Details: read-out: IC50 OX2
Respond with a number, then the unit of measure.

Query (compound): COc1cc(C)cc(-c2nc([C@@H]3CCCN3C(=O)c3cc(Cl)ccc3-n3nccn3)no2)c1 [compound 415] ; field requested: IC50 49 nM

Query (compound): O=C(c1ccccc1-n1nccn1)N1CCC[C@H]1c1nc(-c2ccccc2Cl)no1 [compound 243] ; field requested: IC50 312 nM

Query (compound): COc1ccc(C)c(-c2nc([C@@H]3CCCN3C(=O)c3ccc(Cl)cc3-n3nccn3)no2)c1 [compound 419] ; field requested: IC50 16 nM

Query (compound): Cc1c(F)cccc1-c1nc([C@@H]2CCCN2C(=O)c2cc(Cl)ccc2-n2nccn2)no1 [compound 342] ; field requested: IC50 13 nM

Query (compound): Cc1ccc(-c2ncco2)c(C(=O)N2CCC[C@H]2c2nc(-c3cccc(Cl)c3C)no2)c1 [compound 131] ; field requested: IC50 8 nM

Query (compound): Cc1cc(-n2nccn2)c(C(=O)N2CCC[C@@]2(C)c2nnc(-c3ccccc3OC(F)(F)F)[nH]2)cc1Cl [compound 545] ; field requested: IC50 8 nM

Query (compound): Cc1ncc(C(=O)N2CCC[C@H]2c2nc(-c3cccc(Cl)c3C)no2)c(-c2cccc(Cl)c2)n1 [compound 127] ; field requested: IC50 125 nM

Query (compound): COc1cc(C(=O)N2CCC[C@H]2c2nnc(-c3cccc(Cl)c3C)o2)c(-n2nccn2)cc1C [compound 445] ; field requested: IC50 9 nM

Query (compound): Cc1ccc(C(=O)N2CCC[C@H]2c2cnc(-c3cccc(Cl)c3C)[nH]2)c(-n2nccn2)c1 [compound 522] ; field requested: IC50 367 nM

Query (compound): Cc1ccc(-n2nccn2)c(C(=O)N2CCC[C@H]2c2nnc(-c3cccc(Cl)c3C)[nH]2)c1 [compound 493] ; field requested: IC50 29 nM

Query (compound): Cc1c(Cl)cccc1-c1noc([C@@H]2CCCN2C(=O)c2ccccc2-c2ncco2)n1 [compound 120] ; field requested: IC50 37 nM

Query (compound): O=C(c1cc(Cl)ccc1-n1nccn1)N1CCC[C@H]1c1nc(-c2ccccc2Cl)no1 [compound 236] ; field requested: IC50 150 nM

Query (compound): Cc1cc(F)cc(C(=O)N2CCC[C@H]2c2nc(-c3cccc(Cl)c3C)no2)c1-n1nccn1 [compound 132] ; field requested: IC50 250 nM

Query (compound): Cc1c(Cl)cccc1-c1noc([C@@H]2CCCN2C(=O)c2ccc(F)cc2-n2nccn2)n1 [compound 112] ; field requested: IC50 121 nM

Query (compound): CCOc1c(F)cccc1-c1nc([C@@H]2CCCN2C(=O)c2cc(Cl)ccc2-n2nccn2)no1 [compound 327] ; field requested: IC50 4 nM

Query (compound): O=C(c1ccc(Cl)cc1-n1nccn1)N1CCC[C@H]1c1nc(-c2ccccc2OC(F)(F)F)no1 [compound 172] ; field requested: IC50 18 nM

Query (compound): Cc1c(Cl)cccc1-c1noc([C@@H]2CCCN2C(=O)c2cccc(F)c2-n2nccn2)n1 [compound 114] ; field requested: IC50 83 nM

Query (compound): O=C(c1cc(Cl)ccc1-n1nccn1)N1CCC[C@H]1c1nnc(-c2ccccc2OC(F)(F)F)[nH]1 [compound 504] ; field requested: IC50 5 nM

Query (compound): Cc1c(Cl)cccc1-c1noc([C@@H]2CCCN2C(=O)c2cc(F)ccc2-n2nccn2)n1 [compound 104] ; field requested: IC50 38 nM

Query (compound): Cc1ccc(-n2nccn2)c(C(=O)N2CCC[C@H]2c2nc(-c3cccc(C)c3Cl)no2)c1 [compound 27] ; field requested: IC50 8 nM

Query (compound): COc1cccc(-c2noc([C@@H]3CCCN3C(=O)c3cc(C)ccc3-n3nccn3)n2)c1Cl [compound 70] ; field requested: IC50 53 nM

Query (compound): Cc1cc(C)c(-n2nccn2)c(C(=O)N2CCC[C@H]2c2nc(-c3cccc(Cl)c3C)no2)c1 [compound 119] ; field requested: IC50 24 nM

Query (compound): Cc1c(Cl)cccc1-c1noc([C@@H]2CCCN2C(=O)c2cccc(Cl)c2-n2nccn2)n1 [compound 296] ; field requested: IC50 272 nM

Query (compound): COc1c(F)cccc1-c1nc([C@@H]2CCCN2C(=O)c2ccc(Cl)cc2-n2nccn2)no1 [compound 378] ; field requested: IC50 2 nM

Values from patent US9493446B2
